These data points were gathered from patent US20260116921A1.

Test: in vitro
Conditions: cynomolgus monkey, 20% fecal homogenate (supernatant), anaerobic, pH 6.8
Measure: half-life at 20 μM (h)
Answers are plain numbers, in h.

query: Given CC(=O)NCCCC[C@@H]1NC(=O)[C@@H](NC(C)=O)C(C)(C)SSC(C)(C)[C@@H](C(=O)N[C@@H](Cc2ccc(OCCN)cc2)C(=O)N[C@@H](Cc2ccc3ccccc3c2)C(=O)N[C@@](C)(CCCCN)C(=O)N[C@@H](CCCCNC(C)=O)C(=O)N[C@@H](CC(N)=O)C(=O)NCCC(N)=O)NC(=O)[C@H](CCC(N)=O)NC(=O)[C@H](Cc2c[nH]c3c(C)cccc23)NC(=O)[C@H]([C@@H](C)O)NC1=O , state its recorded half-life at 20 μM.
result: 7
